Molecular target: UniProt:P17252
Assay: Inhibition of human recombinant PKCalpha at < 10 uM after 10 mins by radiometric assay
Activity calls are given as the source filed them. The calls are words filed in the database; no cut-off is given here.
Readout name: inhibition

// solved cases for inhibition follow
# Structure, Target of assay, Readout name, Test value
records = [
    ("[N-]=[N+]=Nc1ccc2sc3c(c2c1)SCCNC3=O", "UniProt:P17252", "inhibition", "inactive"),
    ("O=C1NCCCc2c1oc1ccc(O)cc21", "UniProt:P17252", "inhibition", "inactive"),
    ("O=C1NCCSc2c1sc1ccc(O)cc21", "UniProt:P17252", "inhibition", "inactive"),
    ("O=C1NCCCc2c1[nH]c1ccc(O)cc21", "UniProt:P17252", "inhibition", "inactive"),
    ("COc1ccc2sc3c(c2c1)SCCCNC3=O", "UniProt:P17252", "inhibition", "inactive"),
    ("COc1ccc2sc3c(c2c1)SCCNC3=O", "UniProt:P17252", "inhibition", "inactive"),
    ("COc1ncc2sc3c(c2n1)SCCNC3=O", "UniProt:P17252", "inhibition", "inactive"),
]

// moving on: another record for inhibition
The compound O=C1NCCCSc2c1sc1ccc(O)cc21 showed inhibition equal to inactive

Cited source: ChEMBL document CHEMBL1671836
